biological target: OXA-1 (Escherichia coli)
measured_metric: IC50 (nM)
// return numeric value only (unit: nM, not printed)

Illustrative cases are given below, each with its answer.
>>> recorded_result("O=C1N2CC(n3cc(CO)nn3)=CC(C2)N1OS(=O)(=O)O (centres unmarked) [Example 64]")
86
>>> recorded_result("O=C1N2CC(n3cc(C(F)(F)F)cn3)=CC(C2)N1OS(=O)(=O)[O-].[Na+] (centres unmarked) [Example 22]")
180
>>> recorded_result("NC(=O)CNCc1cn(C2=CC3CN(C2)C(=O)N3OS(=O)(=O)O)nn1 (centres unmarked) [Example 66]")
87
>>> recorded_result("O=C1N2CC(n3nccn3)=CC(C2)N1OS(=O)(=O)O (centres unmarked) [Example 3]")
200

Next compound, please.
OXA-1 (Escherichia coli) / IC50 / O=C1N2CC(n3ccsc3=O)=CC(C2)N1OS(=O)(=O)[O-].[Na+] (centres unmarked) [Example 1] : value? 120
